Test system: K4 kissing-loop RNA reporter;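 further: bound reporter read as fluorescence of individual clusters on recovered sequencing chips by microscopy, with normalized cluster intensities fitted with a binding model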
test-method-notes: apparent KD of K4 kissing-loop reporter; higher = weaker reporter binding
settings: Eterna round: R107; input ligand: arginine 13.2 mM
Exercise: for every item that follows, state its recorded apparent KD of K4 kissing-loop reporter.

Query block: Data request, read-out apparent KD of K4 kissing-loop reporter, for AAAUCUUUCAGAAGGAGCGUGGAUUAUUCAUAUAUAUUUAUUACGAGUGAUGUUCGUAAUUCACAGGUAGGUCGCUGUUCAAUAA [JR_ExcArginiB_Sub005]
Result block: 116 nM

Query block: Bench note: what apparent KD of K4 kissing-loop reporter did GUAGCACUUGAUAGUGAUGUUAUCAAGGACAAGGAUAUCAUCUCAAUGAGAAGGUGUCCUUGAUAACAGCUACGGGAAUAUCCCA [Omei KL FMN A Exc D v1] show?
Result block: 267 nM

Query block: I am curious: what apparent KD of K4 kissing-loop reporter value has been reported for UAGCGUAUCAGAGGAUAUGAUAUGUUAUGCAGUGAUGUUGCAUGAUGUAGCAGAAUUCUGAGUGUAUCAGAAGGCUGAUAUGCUA [FMN B Ex t3] ?
Result block: 87.8 nM

Query block: Which apparent KD of K4 kissing-loop reporter is reported for this sequence? UGAUACCAGACUGAUACCAGCCAGUGAUGUUGGCUAAAACCAAAAGCUGGCAAAGCCAGCGGCCCUUGGCAGCAGUCUGGUAUCU [TheoBX 1 #SwitchBubble #StaticStem]
Result block: 694 nM

Query block: Please look up its apparent KD of K4 kissing-loop reporter: UGAUACCAGGCGGCCGCCACUCCUACAGGUCAAAGACCUGUAAAACUGGUUUUUUAGUGAUGUUGGAGGACCGGGCCUGGUAUCU [FiskerMod 28 - Jieux - Exclusion - Tryptophan B]
Result block: 108 nM

Query block: Fill blank: measured apparent KD of K4 kissing-loop reporter of the sequence GUGCGCGCGGCGGCCGCCACUCGCAUGAGAGUGAUGUUCUCACCGUGACCGUAAGGUCGCGGUGUGAGGACCGGGCCGGGCUGCG [#2 Same State - Tryptophan B Attempt #24 (HarryS)] is ____.
Result block: 114 nM

Query block: Dear colleague, I am looking for the recorded apparent KD of K4 kissing-loop reporter of the following sequence: CGUGCCCGGCCGGAUACCAGUGACCCGCUGGGAACCGCGGGCCCAGAGUGAUGUUCGGGACACCCUUGGCAGCCGCCUGGGCGGC [#2 Same State - Theophylline B Attempt #13 (HarryS)]
Result block: 637 nM

Query block: Quick one: apparent KD of K4 kissing-loop reporter of GGAUAGGACAGAGGAUAUCUCUGAGGCAAGAAAACUUGUCUCUAAAGAGAUGACUCAGUGAUGUUGAGAGAAGGCUGUCCUAUCG [FmnBX 9 - #SwitchBubble #StaticStem] ?
Result block: 143 nM

Query block: Value lookup for apparent KD of K4 kissing-loop reporter; key = ACGUAGUUCUAGGAUACCAGCCAAGGCGCAGGACAAAAGUCCUGCGUCGCCAGUGAUGUUGGCCCUUGGCAGCCUAGAACUACGA [Omei KL Theo B Exc B v12]
Result block: 302 nM

Query block: Given UUAGUCUAGAGAAGGAGCGAGUGAUGUUCGCAGCCCAAAUAAUAAUAAUAAUAAGGGCAUCCUCAGGUAGGUCGCUCUAGACAUU [AK5 Exc Arginine B] , state its recorded apparent KD of K4 kissing-loop reporter.
Result block: 290 nM

Query block: What measured apparent KD of K4 kissing-loop reporter goes with UAGGGCCCUGGAGGAUAUGAGUCUAGUGAUGUUAGGCGGUCCAUGCGCGUGGCGCGUUAUGCCCUUUUAGAAGGCCAGGGCCCUA [#2 Exclusion - FMN B Attempt #17 (HarryS)] ?
Result block: 72.8 nM

Values from the supplement of paper PMC9170038
